Reference for the values: a melting point compilation (Tetko et al.; mined from patent text by program, amines drawn as free bases though some values may be those of a salt)

quantityName: melting point

Record excerpt, results attached:
{"molecule": "COC(=O)c1ccc(Cl)nc1C1=NC(=O)C(C)(C(C)C)N1 (stereo not given)", "melting point": "102 to 104 °C"}
{"molecule": "CCOC(=O)c1cc(N)c(N)nc1C(=O)OCC", "melting point": "143 to 146 °C"}
{"molecule": "CNC(=O)c1cc(-c2ccc(SC)cc2)nn(CC(C)C)c1=O", "melting point": "130 to 131 °C"}
{"molecule": "Cc1ccc(-c2ccc(Cl)c(OC3SCC(O)C(O)C3O)c2)cn1 (stereo not given)", "melting point": "201 °C"}
{"molecule": "CSc1ccc(-c2ccc(C(=O)Nc3ccc4cc(CN5CCCC5)cnc4c3C)cc2)cc1", "melting point": "206 to 208 °C"}
{"molecule": "CCCNc1nc(-c2ccccc2)c(-c2ccc(=O)n(C(C)C)n2)s1", "melting point": "165 to 166 °C"}

Task: Look at this molecule and give its reported melting point. `O=S(=O)(Cc1c(C(F)(F)F)nn(-c2ccccc2)c1O)c1ccccc1`
Result: 122 to 123 °C

Task: Look at this molecule and give its reported melting point. Cc1ccc(CC(=O)N[C@H]2C[C@H](C(=O)O)Nc3cc(Cl)cc(Cl)c32)cc1 (relative stereo)
Result: 229 to 230 °C

Task: Look at this molecule and give its reported melting point. `COc1ccc(-c2nc(Cl)cc(Cl)n2)cc1`
Result: 127 to 128 °C

Task: Look at this molecule and give its reported melting point. `CCOc1cc([N+](=O)[O-])ccc1N1C(=O)c2ccccc2C1=O`
Result: 204 to 206 °C

====

Measured melting point values are reported for all entries that follow.

Record excerpt, results attached:
{"compound": "COc1ccc(-c2c3c(cc4ccc5c(c24)OCO5)C(=O)NC3=O)cc1", "melting point": "311 to 313 °C"}
{"compound": "Nc1cc2c(cc1[N+](=O)[O-])CC(CCO)C2 (stereo unspecified)", "melting point": "89 to 91 °C"}
{"compound": "COc1ccc(/C=C(\\C#N)c2ccccc2N)cc1OC1CCCC1", "melting point": "81 to 82.5 °C"}
{"compound": "CN(C)c1ccc(NC(=O)N(C[C@@H]2CCCC[C@H]2CN(C(=O)Nc2ccc(N(C)C)cc2)C2CCCCC2)C2CCCCC2)cc1 (relative stereo)", "melting point": "108 to 114 °C"}
{"compound": "Nc1cc(F)c(F)c(Br)c1Cl", "melting point": "83 to 86 °C"}
{"compound": "O=[N+]([O-])c1ccc(S(=O)(=O)n2c3cc(O)c(O)cc3c3ccc(O)c(O)c32)cc1", "melting point": "233 to 234 °C"}

Task: Look at this compound and give its reported melting point. CC1C=C(c2nc3cccc(F)c3s2)C=CC1=N (stereo unspecified)
Result: 175 to 177 °C

Task: Look at this compound and give its reported melting point. O=C(CCCS(=O)c1ccccc1)NO (stereo unspecified)
Result: 61 to 62 °C

Task: Look at this compound and give its reported melting point. `O=c1ccoc(CO)c1O`
Result: 154 to 156 °C

Task: Look at this compound and give its reported melting point. `CCCCCCCCNC(=O)Nc1ccccc1C(=O)NC1CCN(C(c2ccccc2)c2ccccc2)CC1`
Result: 149 to 151 °C

Task: Look at this compound and give its reported melting point. `NC(=O)C(=O)c1c2n(c3ccccc13)CCNCC2`
Result: 214 to 215 °C

Task: Look at this compound and give its reported melting point. `Cc1ccc2occ(C3CCN(CCc4cc5c(s4)CCCC(=O)N5)CC3)c2c1`
Result: 156 to 158 °C

Task: Look at this compound and give its reported melting point. NC(Cc1ccc(C(=O)c2ccccc2)cc1)C(=O)O (racemic)
Result: 217 °C

Task: Look at this compound and give its reported melting point. `COc1nc2ccccc2nc1NC(=O)N1CCN(c2ccccc2C(C)C)CC1`
Result: 147 to 149 °C

Task: Look at this compound and give its reported melting point. CC(Br)C(=O)NOCc1ccccc1 (stereo unspecified)
Result: 75.3 to 77.4 °C

Task: Look at this compound and give its reported melting point. `CS(=O)(=O)c1ccc(-c2cnn(-c3ccc(F)c(F)c3)c(=O)c2Cc2ccc(F)c(F)c2)cc1`
Result: 177 to 179 °C

Task: Look at this compound and give its reported melting point. `O=C(Cn1ncc(-c2ccccc2)c1-c1ccccc1)NCCCN1CCCC1`
Result: 75 to 79 °C

Task: Look at this compound and give its reported melting point. `CCOC(=O)c1ncn2c1CN=C(c1ccccc1)c1cc(I)ccc1-2`
Result: 221 to 222 °C

Task: Look at this compound and give its reported melting point. `O=[N+]([O-])c1cnc2cc(Cl)ccc2c1O`
Result: > 300 °C

Task: Look at this compound and give its reported melting point. `O=C(O)Cc1cccc(OCCCCl)c1`
Result: 83 to 84 °C

Task: Look at this compound and give its reported melting point. `COc1cc2c(cc1OCc1ccccc1)CCC(=O)N2Cc1cc(OC)c(OC)c(OC)c1`
Result: 129 to 130 °C
